target: NDM-1 (Klebsiella pneumoniae, UniProt C7C422); assay: Enzyme activity: determination of IC50, fluorescence assay with CCF2-FA substrate; format: biochemical; details: NDM-1 enzyme 1 pM, CCF2-FA 1.25 μM, 2 hours at 25° C.; read-out: NDM1 IC50
Sequence (C7C422 29-270, looked up, species assumed): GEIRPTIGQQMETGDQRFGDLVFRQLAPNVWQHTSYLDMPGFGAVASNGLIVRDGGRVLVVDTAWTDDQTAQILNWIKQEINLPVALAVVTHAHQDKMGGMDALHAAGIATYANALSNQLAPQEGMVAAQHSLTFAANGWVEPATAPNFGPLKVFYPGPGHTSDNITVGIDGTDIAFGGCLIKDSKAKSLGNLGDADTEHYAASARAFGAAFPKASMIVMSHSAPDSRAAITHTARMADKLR
pIC50: −log10 of the molar value.
Note to self: values exactly at 7 are Met. So pIC50 at or above 7 is Met, below is Not met.

A selection of reference data follows.
CCC[C@H](C(=O)O)[C@H](Cc1ccc(-c2ccc3c(c2)CNC3)cc1)c1nnn[nH]1 | Met
CCC[C@H](C(=O)O)C(Cc1ccccc1C(F)(F)F)c1nnn[nH]1 (stereo in doubt) | Met
Nc1ccc(C[C@H](c2nnn[nH]2)[C@H](CC(F)(F)F)C(=O)O)cn1 | Not met
CC(C)C[C@H](C(=O)O)[C@H](Cc1ccc(CN2CCNCC2)c(F)c1)c1nn[nH]n1.O=C(O)C(F)(F)F [Example 446, 2,2,2-trifluoroacetate] | Not met
CCC[C@H](C(=O)O)[C@H](CCCc1ccc(N)nc1)c1nnn[nH]1 | Not met

Ask: Reported pIC50 at or above 7? "CC(C)C[C@H](C(=O)O)[C@H](Cc1ccc(N2CC3(CNC(=O)C3)C2)nc1)c1nnn[nH]1"
Reply: Not met

Ask: Reported pIC50 at or above 7? "CC(C)C[C@H](C(=O)O)[C@H](Cc1ccc(N2CC(CCO)C2)nc1)c1nnn[nH]1"
Reply: Met

---

We begin with a simple list: items and their reported NDM1 EC30005 MITC95.
test system: Escherichia coli expressing NDM-1 (CLB30005); test: Antibiotic potentiation activity: synergistic concentration (MITC95) with imipenem, growth by OD600; format: cell-based; settings: 95% inhibition of bacterial growth, strain CLB30005

O=C(O)[C@H](CCC1CCCCC1)[C@@H](Cc1ccccc1)c1nnn[nH]1 | >200 µM
CCCCC(C(=O)O)[C@@H](Cc1ccc(-c2ccc(S(C)(=O)=O)cc2)cc1)c1nn[nH]n1 (stereo in doubt) | >200 µM

Field: next compound
Ask: Identify NDM1 EC30005 MITC95 associated with the compound "CCCC[C@@H](C(=O)O)[C@@H](Cc1ccc(-c2cnn(-c3ccccc3)c2)cc1)c1nn[nH]n1"
Reply: >200 µM

---

We begin with a simple list: items and their reported IC50.
target: IMP-1 (Serratia marcescens, UniProt P52699); experiment: Enzyme activity: determination of IC50, fluorescence assay with CCF2-FA substrate; type: biochemical; conditions: enzyme 2 pM, CCF2-FA 1.25 μM, 2 hours at 25° C.; read-out: IMP1 IC50
Sequence (P52699 19-246, looked up, species assumed): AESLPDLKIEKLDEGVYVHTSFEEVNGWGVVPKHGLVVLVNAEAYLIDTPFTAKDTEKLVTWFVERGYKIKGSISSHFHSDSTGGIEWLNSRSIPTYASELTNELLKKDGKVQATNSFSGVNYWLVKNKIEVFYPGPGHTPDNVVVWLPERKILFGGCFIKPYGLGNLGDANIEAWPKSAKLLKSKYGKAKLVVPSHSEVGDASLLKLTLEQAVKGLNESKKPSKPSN

CCC[C@H](C(=O)O)[C@H](Cc1ccc(S(C)(=O)=O)cc1)c1nn[nH]n1 | 720 nM
CCC[C@H](C(=O)O)[C@H](Cc1ccc(-c2cccc(CN)c2)cc1)c1nn[nH]n1 | 130 nM
CCC[C@H](C(=O)O)[C@H](Cc1ccc(CN)cc1)c1nnn[nH]1 | 13000 nM
CCC[C@H](C(=O)O)[C@H](Cc1cccc(C(=O)O)n1)c1nnn[nH]1 | > 20000 nM
CCC[C@H](C(=O)O)[C@H](Cc1ccncc1)c1nnn[nH]1 | 2000 nM

Field: next compound
Ask: Identify IC50 associated with the compound "Cc1ccc(C[C@H](c2nn[nH]n2)[C@H](CC(C)C)C(=O)O)cc1"
Reply: 89 nM

---

target: UniProt P52699; assay: Enzyme activity: determination of IC50, fluorescence assay with CCF2-FA substrate; assay type: biochemical; details: enzyme 2 pM, CCF2-FA 1.25 μM, 2 hours at 25° C.; read-out: IMP1 IC50
We begin with a simple list: items and their reported IC50.

Reference set, count: 5
CCC[C@H](C(=O)O)[C@H](Cc1ccc(N)cn1)c1nnn[nH]1 | 7700 nM
CCC[C@H](C(=O)O)[C@H](Cc1ccc(-c2ccc(C3(O)CNC3)cc2)cn1)c1nnn[nH]1 | 9300 nM
CC(C)C[C@H](C(=O)O)[C@H](Cc1ccc(-c2ccc(N)nc2)cn1)c1nn[nH]n1 | 800 nM
Cc1cc(C[C@H](c2nnn[nH]2)[C@@H](C(=O)O)C(C)C)ccc1C1=CCNC1 | 1100 nM
CC(C)CCC[C@@H](C(=O)O)[C@H](Cc1ccccc1)c1nnn[nH]1 | 68 nM

Ask: Identify IC50 associated with the compound "CCC[C@H](C(=O)O)[C@H](Cc1ccc(-c2ccc(CN)cc2)cc1)c1nn[nH]n1"
Reply: 110 nM

Ask: Identify IC50 associated with the compound CC(C)[C@H](C(=O)O)[C@H](Cc1ccc(C2CCNC2)cc1)c1nnn[nH]1 (stereo partly shown)
Reply: 460 nM

---

test system: Klebsiella pneumoniae expressing VIM-1 (IHMA599644); test: Antibiotic potentiation activity: synergistic concentration (MITC95) with imipenem, growth by OD600; type: cell-based; conditions: 95% inhibition of bacterial growth, strain IHMA599644
recorded-endpoint: VIM1 KP599644 MITC95

Reference set, count: 3
CCC[C@H](C(=O)O)[C@H](Cc1ccccc1Br)c1nnn[nH]1 [Example 26] | 18.8 µM
CCC[C@H](C(=O)O)[C@H](Cc1cccc(C#N)c1)c1nn[nH]n1 [Example 41] | 18.8 µM
CC(C)C[C@H](C(=O)O)[C@H](Cc1ccc(C2CCNC2)nc1)c1nnn[nH]1 (stereo partly drawn) [Example 100] | 12.5 µM

Ask: Identify VIM1 KP599644 MITC95 associated with the molecule O=C(O)[C@H](CCC1CCCCC1)[C@@H](Cc1ccccc1)c1nnn[nH]1 [Example 31]
Reply: >200 µM

Ask: Identify VIM1 KP599644 MITC95 associated with the molecule CCC[C@H](C(=O)O)[C@H](Cc1ccc(-c2cnc(N)nc2)nc1)c1nnn[nH]1 [Example 161]
Reply: 50 µM

Ask: Identify VIM1 KP599644 MITC95 associated with the molecule CCC[C@H](C(=O)O)[C@H](Cc1ccc(NCC(=O)N(C)C)cc1)c1nn[nH]n1 [Example 218]
Reply: 50 µM

Ask: Identify VIM1 KP599644 MITC95 associated with the molecule O=C(O)[C@@H](C1CCCC1)[C@H](Cc1ccccc1)c1nnn[nH]1 [Example 17]
Reply: 37.5 µM

Ask: Identify VIM1 KP599644 MITC95 associated with the molecule O=C(O)[C@@H](CCC1CCCCC1)[C@H](Cc1ccccc1)c1nnn[nH]1 [Example 11]
Reply: >200 µM

Ask: Identify VIM1 KP599644 MITC95 associated with the molecule NC(=O)CCCC[C@H](C(=O)O)[C@H](Cc1ccccc1)c1nnn[nH]1 [Example 35]
Reply: >200 µM

Ask: Identify VIM1 KP599644 MITC95 associated with the molecule CC(C)C[C@H](C(=O)O)[C@H](Cc1ccc(S(C)(=O)=O)cc1)c1nn[nH]n1 [Example 50]
Reply: 50 µM

---

molecular target: VIM-1 (Pseudomonas aeruginosa); assay: Enzyme activity: determination of IC50, fluorescence assay with CCF2-FA substrate; assay type: biochemical; conditions: VIM-1 enzyme 30 pM, CCF2-FA 1.25 μM, 2 hours at 25° C.; read-out: VIM1 IC50
recorded-endpoint: pIC50
// pIC50: -log10(molar conc.)

Reference set, count: 10
CCC[C@H](C(=O)O)[C@H](Cc1ccccc1C1=CCC(N)CC1)c1nn[nH]n1 (some centres unmarked) [Example 449, 2,2,2-trifluoroacetate] | 7.06
CC(C)C[C@H](C(=O)O)[C@H](Cc1ccc(N2CC(N3CCOCC3)C2)nc1)c1nnn[nH]1 | 7.31
CCC[C@H](C(=O)O)[C@H](Cc1ccc(C2CCNC2)nc1)c1nnn[nH]1 (some centres unmarked) | 7.85
CCC[C@H](C(=O)O)[C@H](Cc1cnc(N(C)C)nc1)c1nnn[nH]1 | 8.68
CC(C)C[C@H](C(=O)O)[C@H](Cc1ccc(NC2CNCc3ccccc32)nc1)c1nnn[nH]1 (some centres unmarked) | 7.89
CCC[C@H](C(=O)O)[C@H](Cc1cccc(N(C)CCN(C)C)c1)c1nn[nH]n1 | 7.54
CCC[C@H](C(=O)O)[C@H](Cc1cccc(-c2cccc(CN)c2)c1)c1nn[nH]n1 | 8.60
CC(C)(C)[C@H](C(=O)O)C(Cc1ccc(N)nc1)c1nnn[nH]1 (some centres unmarked) | 7.72
CC(C)C[C@H](C(=O)O)[C@H](Cc1ccc(Oc2ccc(CN)cc2)nc1)c1nn[nH]n1 | 8.28
CCC[C@H](C(=O)O)[C@H](Cc1cccc(-c2ccc3c(c2)CCC(N)C3)c1)c1nn[nH]n1 (some centres unmarked) | 8.85

Field: next compound
Ask: Identify pIC50 associated with the compound CCC[C@H](C(=O)O)[C@H](Cc1ccccc1C1=CCC(NC)CC1)c1nn[nH]n1 (some centres unmarked) [Example 448, 2,2,2-trifluoroacetate]
Reply: 7.31

Each recorded value in this set is attributed to patent US9839642B2.
